Measured values drawn from patent US20100204219A1 for this set.

- study target: βCat-BCL9 (beta-Catenin/BCL9-BCL9L interaction) (Homo sapiens)
- Sequence (P35222 whole entry): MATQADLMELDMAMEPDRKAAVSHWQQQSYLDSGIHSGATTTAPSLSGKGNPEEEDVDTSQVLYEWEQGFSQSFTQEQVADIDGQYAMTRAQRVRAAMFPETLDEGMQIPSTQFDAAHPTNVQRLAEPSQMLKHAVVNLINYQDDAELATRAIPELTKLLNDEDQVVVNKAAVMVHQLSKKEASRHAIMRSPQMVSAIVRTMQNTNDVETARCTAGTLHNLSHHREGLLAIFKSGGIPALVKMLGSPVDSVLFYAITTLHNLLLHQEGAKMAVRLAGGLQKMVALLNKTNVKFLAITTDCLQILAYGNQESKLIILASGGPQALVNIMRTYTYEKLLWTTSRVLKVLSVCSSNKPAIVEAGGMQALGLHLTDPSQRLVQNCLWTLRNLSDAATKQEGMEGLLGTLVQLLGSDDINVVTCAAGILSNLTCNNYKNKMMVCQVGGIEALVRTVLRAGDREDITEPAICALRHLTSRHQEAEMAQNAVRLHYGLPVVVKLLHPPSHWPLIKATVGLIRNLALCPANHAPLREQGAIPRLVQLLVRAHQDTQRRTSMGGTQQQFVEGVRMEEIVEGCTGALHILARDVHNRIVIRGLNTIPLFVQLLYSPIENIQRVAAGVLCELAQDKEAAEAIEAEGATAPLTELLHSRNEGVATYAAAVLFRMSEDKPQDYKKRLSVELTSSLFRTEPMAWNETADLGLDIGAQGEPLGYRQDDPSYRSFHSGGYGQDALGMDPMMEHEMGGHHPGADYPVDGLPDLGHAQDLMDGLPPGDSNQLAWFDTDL
- assay summary: ELISA based protein-protein interaction assay, βCat-BCL9
- run parameters: Example 1
endpoint name: IC50

Past entries and their recorded results:
                                   compound                              study_target  endpoint_name  experimental_value
0  COc1ccc(OC)c(CCNC(=O)c2ccc(C(=O)NCCc3cc(OC)ccc3OC)nc2)c1 [TGC0011457]  βCat-BCL9 (beta-Catenin/BCL9-BCL9L interaction) (Homo sapiens)           IC50            > 100 µM
1  CCC(C)NC(=O)c1ccc(C(=O)NC(C)CC)nc1 (centres unmarked) [TGC0011437]  βCat-BCL9 (beta-Catenin/BCL9-BCL9L interaction) (Homo sapiens)           IC50             > 50 µM
2  O=C(NCCc1ccc2c(c1)OCO2)c1ccc(C(=O)NCCc2ccc3c(c2)OCO3)nc1 [TGC0011448]  βCat-BCL9 (beta-Catenin/BCL9-BCL9L interaction) (Homo sapiens)           IC50             > 10 µM
3  COc1cccc(CCNC(=O)c2ccc(C(=O)NCCc3cccc(OC)c3)nc2)c1 [TGC0011446]  βCat-BCL9 (beta-Catenin/BCL9-BCL9L interaction) (Homo sapiens)           IC50             > 10 µM
4  O=C(NCCc1cccc(C(F)(F)F)c1)c1ccc(C(=O)NCCc2cccc(C(F)(F)F)c2)nc1 [TGC0011452]  βCat-BCL9 (beta-Catenin/BCL9-BCL9L interaction) (Homo sapiens)           IC50             > 10 µM
5  O=C(NCC1CCCO1)c1ccc(C(=O)NCC2CCCO2)nc1 (centres unmarked) [TGC0011424]  βCat-BCL9 (beta-Catenin/BCL9-BCL9L interaction) (Homo sapiens)           IC50             > 50 µM
6  O=C(NCc1ccc2c(c1)OCO2)c1ccc(C(=O)NCc2ccc3c(c2)OCO3)nc1 [TGC0011430]  βCat-BCL9 (beta-Catenin/BCL9-BCL9L interaction) (Homo sapiens)           IC50             > 50 µM

Now let's try a different one.
Tell me the measured IC50 of CC(=O)Nc1ccc(-c2cnc(-c3ccc(NC(C)=O)cc3)nc2)cc1 [TGC0011524] , please.
> 100 µM
